Test system: IGROV1 ovarian
Assay: NCI tumour cell line growth inhibition, 48 h
propertyMeasured: TGI

Examples with their reported TGI follow.
compound: Oc1c(Cl)cc(Cl)c(Cl)c1CNCCNCc1c(O)c(Cl)cc(Cl)c1Cl
TGI: 7.8 µM
--
compound: C[C@H](C1CC(C)(O)C(C)(O)C(O)O1)[C@H]1CC[C@H]2[C@@H]3[C@@H]4O[C@@H]4[C@@]4(O)CC=CC(=O)[C@]4(C)[C@H]3CC[C@]12C (some centres undefined)
TGI: > 50 µM
--
compound: CSc1ncnc2c1ncn2CCC(=O)O
TGI: > 100 µM

Now turn to the next compound.
Given the entry C[C@H]1C[C@@H]2[C@H]([C@@H](O)C[C@@]3(C)[C@H]2CC[C@]3(O)C(=O)CO)[C@@]2(C)C=CC(=O)C=C12 , report its measured TGI.
> 100 µM

---

System: MCF7 breast
Experiment: NCI tumour cell line growth inhibition, 48 h
propertyMeasured: TGI

molecule: CC(=O)c1nc2ccccc2n1C(C)C(=O)c1ccccc1 (stereo unspecified)
TGI: > 100 µM

molecule: COc1ccc(C2SC(N)=Nc3c2c(C)nn3C(=O)c2ccccc2O)cc1OC (stereo unspecified)
TGI: > 10 µM

molecule: COc1ccc(/C=C\c2cc(OC)c(OC)c(OC)c2)cc1OCC(=O)Nc1nc2ccc(F)cc2s1
TGI: > 100 µM

molecule: CCn1cc2c(=O)n3ncn(-c4ccc(Br)cc4)c3nc2n1
TGI: > 100 µM

molecule: OCC1C(OCc2ccccc2)C(OCc2ccccc2)C(OCc2ccccc2)CN1Cc1ccccc1 (stereo unspecified)
TGI: 43.9 µM

Now turn to the next molecule.
Given the entry Cc1ccc2c(c1)SC1=Nc3sc4cc(C)ccc4[n+]3CN12 , report its measured TGI.
> 100 µM

---

Entries and their TGI values follow.
System: HCT-15 colon
Test: NCI tumour cell line growth inhibition, 48 h
Give the quantity in µM, number only.

Examples with their reported TGI follow.
molecule: CC(C)(C)[Si](OC1CCOC1=O)(c1ccccc1)c1ccccc1 (centres undefined)
resultUnit: µM
measuredNumber: 61.5

molecule: COc1ccc(C(c2ccccc2)(c2ccc(OC)cc2)N2C(=O)NC3C(CCCCC(=O)NCCCCCCOP(OCCC#N)N(C(C)C)C(C)C)SCC32)cc1 (centres undefined)
resultUnit: µM
measuredNumber: 35.6

molecule: CCCCN1C(=O)C2Cc3c([nH]c4ccccc34)C(c3cccc(O)c3)N2C1=O (centres undefined)
resultUnit: µM
measuredNumber: 37.2

molecule: Clc1c(Cl)[n+](Cc2ccc3ccccc3c2)cn1Cc1ccc2ccccc2c1
resultUnit: µM
measuredNumber: 3.62

Now turn to the next molecule.
Given the entry CC1(C)OC2C(COC(c3ccccc3)(c3ccccc3)c3ccccc3)OC(c3c[nH]c4c(N)ncnc34)C2O1 (centres undefined) , report its measured TGI.
15.2

---

Test system: HCC-2998 colon
Experiment: NCI tumour cell line growth inhibition, 48 h
propertyMeasured: TGI

Given the entry N#C/C(=C\c1cc(O)cc(O)c1)C(N)=O , report its measured TGI.
> 100 µM

Given the entry C[C@H](C1CC(C)(O)C(C)(O)C(O)O1)[C@H]1CC[C@H]2[C@@H]3[C@@H]4O[C@@H]4[C@@]4(O)CC=CC(=O)[C@]4(C)[C@H]3CC[C@]12C (stereo partly drawn) , report its measured TGI.
> 50 µM

Given the entry NC(=O)NNC(=O)CCn1[nH]c(=O)c(Cl)c(Cl)c1=O , report its measured TGI.
> 100 µM
